Each entry below lists one item and its recorded MED value (minimum effective dose) value.
- Assay Target: Human ENaC δ, β and γ subunit (Homo sapiens, UniProt P51168+P51170+P51172)
- Construct: expressed in transfected cells; host or cells: Xenopus laevis (African clawed frog) oocytes injected with cRNA
- Sequence (P51172 1-638 isoform P51172-1): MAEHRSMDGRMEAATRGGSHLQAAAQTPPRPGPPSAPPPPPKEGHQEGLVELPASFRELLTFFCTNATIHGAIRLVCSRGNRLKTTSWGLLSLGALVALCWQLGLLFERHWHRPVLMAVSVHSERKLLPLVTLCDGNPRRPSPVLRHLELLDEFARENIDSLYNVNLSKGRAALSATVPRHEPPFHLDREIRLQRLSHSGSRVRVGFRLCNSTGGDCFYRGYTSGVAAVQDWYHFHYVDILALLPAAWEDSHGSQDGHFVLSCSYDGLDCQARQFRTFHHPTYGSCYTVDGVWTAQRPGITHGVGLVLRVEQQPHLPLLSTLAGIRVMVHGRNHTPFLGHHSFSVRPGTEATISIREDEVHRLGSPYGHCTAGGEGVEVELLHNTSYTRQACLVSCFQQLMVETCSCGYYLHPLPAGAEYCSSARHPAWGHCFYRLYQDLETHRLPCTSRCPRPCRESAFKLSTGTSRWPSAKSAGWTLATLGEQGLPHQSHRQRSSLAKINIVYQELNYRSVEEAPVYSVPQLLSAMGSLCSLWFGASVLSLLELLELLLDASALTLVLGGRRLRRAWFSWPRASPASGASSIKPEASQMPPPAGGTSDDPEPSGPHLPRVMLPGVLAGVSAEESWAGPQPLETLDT
- Sequence (P51168 whole entry): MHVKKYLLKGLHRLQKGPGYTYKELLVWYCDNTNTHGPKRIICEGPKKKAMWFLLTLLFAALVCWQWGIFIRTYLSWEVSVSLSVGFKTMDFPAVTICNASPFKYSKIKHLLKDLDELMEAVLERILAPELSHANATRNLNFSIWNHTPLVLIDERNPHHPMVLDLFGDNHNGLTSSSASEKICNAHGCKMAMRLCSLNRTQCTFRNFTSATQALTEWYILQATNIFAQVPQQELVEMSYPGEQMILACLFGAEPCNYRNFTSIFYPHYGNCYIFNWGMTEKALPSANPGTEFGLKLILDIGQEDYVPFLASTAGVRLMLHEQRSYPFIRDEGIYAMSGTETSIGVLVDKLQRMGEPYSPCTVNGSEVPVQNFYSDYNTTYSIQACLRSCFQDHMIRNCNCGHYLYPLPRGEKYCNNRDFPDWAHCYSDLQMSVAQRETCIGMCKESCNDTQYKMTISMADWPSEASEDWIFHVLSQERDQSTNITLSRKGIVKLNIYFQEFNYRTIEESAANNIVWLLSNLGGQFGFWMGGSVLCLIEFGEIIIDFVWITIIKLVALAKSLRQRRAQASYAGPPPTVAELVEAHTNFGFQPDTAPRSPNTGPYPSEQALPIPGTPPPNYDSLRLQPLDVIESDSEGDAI
- Sequence (P51170 whole entry): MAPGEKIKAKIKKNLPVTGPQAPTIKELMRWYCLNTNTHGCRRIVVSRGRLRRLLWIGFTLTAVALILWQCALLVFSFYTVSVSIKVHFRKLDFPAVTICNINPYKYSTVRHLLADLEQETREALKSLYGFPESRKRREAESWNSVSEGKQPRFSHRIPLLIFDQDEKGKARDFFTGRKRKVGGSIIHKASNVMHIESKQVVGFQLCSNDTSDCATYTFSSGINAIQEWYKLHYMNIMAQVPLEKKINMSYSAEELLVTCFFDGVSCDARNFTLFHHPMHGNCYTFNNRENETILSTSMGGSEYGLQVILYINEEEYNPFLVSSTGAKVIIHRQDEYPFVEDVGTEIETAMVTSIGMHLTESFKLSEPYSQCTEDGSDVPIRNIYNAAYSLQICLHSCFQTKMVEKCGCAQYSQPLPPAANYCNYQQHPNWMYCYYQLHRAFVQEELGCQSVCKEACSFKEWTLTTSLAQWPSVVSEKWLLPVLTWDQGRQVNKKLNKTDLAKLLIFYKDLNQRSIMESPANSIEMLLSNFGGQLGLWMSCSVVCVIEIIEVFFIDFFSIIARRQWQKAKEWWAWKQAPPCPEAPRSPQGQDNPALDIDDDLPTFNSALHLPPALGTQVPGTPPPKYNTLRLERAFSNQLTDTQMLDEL
- Measurement Protocol: Measurement of ENaC activation potency (two electrode voltage clamp current in ENaC-expressing oocyte)
- Assay type: cell-based
- Run Conditions: lowest concentration increasing the current value by not less than 10% vs before addition
- Procedure: ENaC activation current value, namely, the inward current in ENaC-expressing oocyte was measured as follows. According to the method described in Motonao Nakamura, Takao Shimizu: Experiment of African clawed frog oocyte, Experimental Medicine Vol. 11, No. 3, 224-232 (1993), oocyte was collected from African clawed frog, […], and the current value was measured by a Two Electrode Voltage Clamp technique. […]

Reference set (5 entries):
{"Compound": "O=C(N[C@@H](Cc1ccccc1)C(=O)O)c1ccc(Br)cc1O [Example 108]", "Measurement Name": "MED value (minimum effective dose)", "Result": "0.1 to 0.3 µM"}
{"Compound": "O=C(N[C@@H](Cc1c[nH]c2ccccc12)C(=O)O)c1ccc(Br)cc1O [Example 110]", "Measurement Name": "MED value (minimum effective dose)", "Result": "0.1 to 0.3 µM"}
{"Compound": "COC(=O)[C@H](CCc1ccccc1)NC(=O)c1c(O)cc(C)cc1O [Example 116]", "Measurement Name": "MED value (minimum effective dose)", "Result": "3 to 10 µM"}
{"Compound": "Cc1ccc2c(CC(NC(=O)CCc3ccccc3)C(=O)O)c[nH]c2c1 (centres unmarked) [Example 77]", "Measurement Name": "MED value (minimum effective dose)", "Result": "1 to 3 µM"}
{"Compound": "O=C(NCCc1c[nH]c2ccccc12)c1cc(O)ccc1O [Example 42]", "Measurement Name": "MED value (minimum effective dose)", "Result": "1 to 3 µM"}

Query: Checklist item: MED value (minimum effective dose) tested on Human ENaC δ, β and γ subunit (Homo sapiens, UniProt P51168+P51170+P51172), entry COC(=O)[C@H](Cc1c[nH]c2ccccc12)NC(=O)c1cc(Br)ccc1O [Example 92] , value?
Result: 3 to 10 µM

Query: Checklist item: MED value (minimum effective dose) tested on Human ENaC δ, β and γ subunit (Homo sapiens, UniProt P51168+P51170+P51172), entry O=C(CCc1ccccc1)N[C@@H](Cc1c[nH]c2ccccc12)C(=O)O [Example 63] , value?
Result: 1 to 3 µM

Query: Checklist item: MED value (minimum effective dose) tested on Human ENaC δ, β and γ subunit (Homo sapiens, UniProt P51168+P51170+P51172), entry Cc1ccc2[nH]cc(CC(NC(=O)CCc3ccccc3)C(=O)O)c2c1 (centres unmarked) [Example 73] , value?
Result: 1 to 3 µM

Reference source: patent US20130196050A1
